Reference source for all entries: patent US20180105596A1

assayed.system: T1, recombinant His-Strep tagged human Tyro3 extracellular domain (human, UniProt Q06418 41-429)
T1 construct: also called hTyro3 ECD; full Tyro3 ECD
T1 sequence: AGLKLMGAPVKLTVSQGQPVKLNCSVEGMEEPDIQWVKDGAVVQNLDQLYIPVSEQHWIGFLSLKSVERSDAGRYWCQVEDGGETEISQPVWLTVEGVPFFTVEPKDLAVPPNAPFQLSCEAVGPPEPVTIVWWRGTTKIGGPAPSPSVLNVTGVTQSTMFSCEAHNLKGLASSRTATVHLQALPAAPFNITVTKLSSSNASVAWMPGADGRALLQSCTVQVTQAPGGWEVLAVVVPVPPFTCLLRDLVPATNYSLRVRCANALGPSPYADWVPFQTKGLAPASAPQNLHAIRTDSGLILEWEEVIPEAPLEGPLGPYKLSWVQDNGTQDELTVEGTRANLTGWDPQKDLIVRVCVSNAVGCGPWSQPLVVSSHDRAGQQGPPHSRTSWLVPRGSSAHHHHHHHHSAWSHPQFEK
protocol.details: BLI (Octet K2), 1:1 global fit; analyte concentration of this kobs not given
metric.name: kobs (s⁻¹)
Report the figure in s⁻¹ without appending any unit label.

Guide cases for kobs, answers given:
>>> test_value("IgG2415 (antibody, V domains shown, also called IGX2415) VH: EVQLVQSGADVKKPGASLTISCQASGYTFTDYWISWVRQKPGKGLEWMGQIRGPASATHYGPSFQGHVTISADRSTATAYLQWRSLEASDTAMYYCVRHQQQTSGGTIPEYYQHWGPGTLVTVSS VL: SYELTQPPSVSVSPGQTARITCSGDALPKKYAYWYQQKSGQAPVLVIYEDKKRISGIPERFSGSSSGTMATLTISGAQVEDEADYYCYSTSTGGNYMVFGGGTKLTVL")
0.0102
>>> test_value("IgG2710 (antibody, V domains shown, also called IGX2710) VH: EVQLVQSGADVKKPGASLTISCQASGYTFTDYWISWVRQKPGKGLEWMGVINKYASWTRYGPSFQGHVTISADRSTATAYLQWRSLEASDTAMYYCVRSGGLTSGGTIPEYYQHWGPGTLVTVSS VL: SYELTQPPSVSVSPGQTARITCSGDALPKKYAYWYQQKSGQAPVLVIYEDSKRPSGIPERFSGSSSGTMATLTISGAQVEDEADYYCYSQNPQGNYFVFGGGTKLTVL")
0.00321

Kindly consider the entry below.
# get_value(readout='kobs', item= IgG2713 (antibody, V domains shown, also called IGX2713) VH: EVQLVQSGADVKKPGASLTISCQASGYTFTDYWISWVRQKPGKGLEWMGRISRHGSQTYYGPSFQGHVTISADRSTATAYLQWRSLEASDTAMYYCVRAGGQTSGGTIPEYYQHWGPGTLVTVSS VL: SYELTQPPSVSVSPGQTARITCSGDALPKKYAYWYQQKSGQAPVLVIYEDHKRASGIPERFSGSSSGTMATLTISGAQVEDEADYYCYSISPAGNYGVFGGGTKLTVL ) 0.00934
